Target: T1, human MCAM, full length, expressed on transfected cells (human, UniProt P43121 24-646)
T1 construct: CHO cells transfected with the full length human MCAM gene; also called hMCAM; CD146
T1 chain: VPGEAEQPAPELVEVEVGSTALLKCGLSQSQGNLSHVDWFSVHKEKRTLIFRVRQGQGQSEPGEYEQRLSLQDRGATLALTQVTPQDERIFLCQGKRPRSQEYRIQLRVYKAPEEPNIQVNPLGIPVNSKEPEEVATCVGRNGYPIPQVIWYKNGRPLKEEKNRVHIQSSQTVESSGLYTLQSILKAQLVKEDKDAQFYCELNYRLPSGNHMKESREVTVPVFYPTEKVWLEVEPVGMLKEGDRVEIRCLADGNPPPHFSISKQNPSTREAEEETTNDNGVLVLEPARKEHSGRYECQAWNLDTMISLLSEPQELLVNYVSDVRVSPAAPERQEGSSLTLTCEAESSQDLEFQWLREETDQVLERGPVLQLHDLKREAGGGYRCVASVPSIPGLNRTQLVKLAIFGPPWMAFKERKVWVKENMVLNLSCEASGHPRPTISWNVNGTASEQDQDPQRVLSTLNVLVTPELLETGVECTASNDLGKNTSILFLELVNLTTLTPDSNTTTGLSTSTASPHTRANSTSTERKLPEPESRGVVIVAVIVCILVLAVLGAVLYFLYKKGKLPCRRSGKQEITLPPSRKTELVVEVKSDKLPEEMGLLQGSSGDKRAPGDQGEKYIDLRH
Test: blocking of laminin 411 (20 ug/ml) binding to CHO cells expressing human MCAM, flow cytometry
# IC50 listing for each entry below
Output spec: scalar in µg/mL, unitless text.

Recorded IC50, per entry:
| BINDER | UNIT ABBREVIATION | IC50 |
| --- | --- | --- |
| mouse anti-human MCAM monoclonal antibody clone 1414.1.2 (antibody, V domains shown, Mouse hybridoma antibody) VH: EIQLQQTGPELVKPGASVKISCKASGYSFTDYIMLWVKQSHGKSLEWIGNINPYSGSSGYNLKFKGKATLTVDKSSSTAYMQLNSLTSEDSAVYYCARGKDFAMDYWGQGTSVTVSS VL: DIVMSQSPSSLAVSAGEKVTMSCKSSQSLLNSSTRKNFLAWYQQKPGQSPKLLIYWASTRESGVPDRFTGSGSGTDFTLTISSVQAEDLAVYYCKQSYNRYTFGGGTKLEIK | µg/mL | 0.431 |
| mouse anti-human MCAM monoclonal antibody clone 1415.1.1 (antibody, V domains shown, Mouse hybridoma antibody) VH: QVQLQQPGAELVQPGAPVKLSCKASGYIFTSYWMNWVKQRPGRGLEWIGRIDPSDSKIHYNQKFKDKATLTVDRSSSTAYIQLGSLTSEDSAVYYCAKEGGLRRGDYAMDYWGQGTSVTVSS VL: DIVMTQSPATLSVTPGDRVSLSCRASQSISDYLHWYQQKSHESPRLLIKYASQSISGIPSRFSGSGSGSDFTLSINSVEPEDVGVYYCQNGHNFPRTFGGGTKLEIK | µg/mL | 0.307 |
| mouse anti-human MCAM monoclonal antibody clone 1749.1.3 (antibody, V domains shown, Mouse hybridoma antibody) VH: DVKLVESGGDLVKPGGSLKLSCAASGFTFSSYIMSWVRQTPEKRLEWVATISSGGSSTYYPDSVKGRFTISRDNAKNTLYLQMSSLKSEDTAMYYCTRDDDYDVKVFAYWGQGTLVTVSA VL: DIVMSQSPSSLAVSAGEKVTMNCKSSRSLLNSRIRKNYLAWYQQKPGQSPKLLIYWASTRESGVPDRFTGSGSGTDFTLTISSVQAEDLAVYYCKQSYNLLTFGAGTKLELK | µg/mL | 0.545 |

Input mouse anti-human MCAM monoclonal antibody clone 1174.1.3 (antibody, V domains shown, Mouse hybridoma antibody) VH: QIQLVQSGPELKKPGETVKISCKASGYTFTNYGMNWVKQAPGKGLKWMGWINTYTGEPTYADDFKGRFALSLETSASTAYLQINNLKNEDMATYFCARYRYNKYERAMDYWGQGTSVTVSS VL: DIVLTQSPASLAVSLGQRATISCRASKSVSTSGYSYMYWYQQKPGQPPKLLIYLASNLESGVPARFSGSGSGTDFTLNIHPVEEEDAATYYCQHSRELPFTFGSGTKLEIK . Output IC50: 0.469

Noted for rat anti-human MCAM monoclonal antibody clone 2107.4.10 (antibody, V domains shown) VH: QVQLKESGPGLVQSSQTLSLTCTVSGFSLTSNGVSWVRQPPGKGLEWIAAISSGGSTYYNSAFKSRLSISRNTSKSQVLLKMNSLQTEDTGMYFCARHRPFYFDYWGQGVMVTVSS VL: DIQVTQSPSLLSASVGDRVTLNCKGSQNIYKSLAWFRLKRGEAPKLLIYDANSLQTGIPSRFSGSGSGTDFTLTITSLQPEDVATYFCQQYYSGYTFGAGTKLELK : its IC50 reads 0.29
